src = patent US20200069592A1

Run Description: Plasma pharmacokinetics after single PO or IV administration (Example 5), LC-MS/MS
Measurement Setup: female, Sprague Dawley, rat, plasma, po, 60 mg/kg, Cmax (ng/mL) Mean ± StdDev, Group 8: 60 mg/kg PO, 60 mM Citric acid buffer + 30% Captisol; free base
Experimental Readout: Cmax (µg/mL)
Answer in µg/mL, number only, no unit symbol.

Answer with the recorded Cmax for the molecule listed here: CC(C)(C)CNCCn1c(Sc2cc3c(cc2I)OCO3)nc2c(N)ncnc21 1.08

###

Run Description: Plasma pharmacokinetics after single PO or IV administration (Example 5), LC-MS/MS
Measurement Setup: female, Sprague-Dawley, rat, plasma, po, 24 mg/kg, AUC0-last (hr*ng/mL) Mean ± StdDev, Group 1: 24 mg/kg PO, ORA-Plus; free base, single dose
Experimental Readout: AUC(0-t)
Respond with a number, then the unit of measure.

Answer with the recorded AUC(0-t) for the molecule listed here: CC(C)(C)CNCCn1c(Sc2cc3c(cc2I)OCO3)nc2c(N)ncnc21 [Compound 2] 975 ng·h/mL
